Target: human recombinant BACE1 (Homo sapiens (Human), UniProt P56817)
Sequence (P56817 46-501): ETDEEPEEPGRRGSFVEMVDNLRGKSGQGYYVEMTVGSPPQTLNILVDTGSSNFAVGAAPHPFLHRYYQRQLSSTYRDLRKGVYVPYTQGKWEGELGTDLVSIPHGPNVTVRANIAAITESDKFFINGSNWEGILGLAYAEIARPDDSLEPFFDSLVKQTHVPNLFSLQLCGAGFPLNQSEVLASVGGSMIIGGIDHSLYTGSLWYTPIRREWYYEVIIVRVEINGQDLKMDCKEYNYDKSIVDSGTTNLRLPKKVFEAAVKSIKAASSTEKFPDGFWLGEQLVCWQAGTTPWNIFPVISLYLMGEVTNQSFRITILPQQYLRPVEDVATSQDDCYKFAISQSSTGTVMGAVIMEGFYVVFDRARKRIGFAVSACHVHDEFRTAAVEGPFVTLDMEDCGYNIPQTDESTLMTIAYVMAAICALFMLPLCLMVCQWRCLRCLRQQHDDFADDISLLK
Assay: In vitro enzymatic BACE1 FRET assay
Type: biochemical
Details: BACE1 FRET enzyme assay; read-out: IC50 IP (μM) BACE1 enzyme
assayEndpoint: IC50 (µM)
Write the value in µM as a bare number.

Req: So what does the record say about IC50 for "NC1=N[C@](CF)(c2cc(NC(=O)c3ccc(Cl)cn3)cc(F)c2F)[C@@H]2C[C@]2(CO)S1" ?
Resp: 0.00206

Req: So what does the record say about IC50 for "C[C@]1(c2cc(NC(=O)c3ccc(C#N)cn3)cc(F)c2F)N=C(N)S[C@H]2C[C@H]21" ?
Resp: 0.0109

Req: So what does the record say about IC50 for "N#Cc1cnc2c(Nc3ccc(F)c([C@@]4(CF)N=C(N)S[C@@]5(CO)C[C@H]54)c3)ncnc2c1" ?
Resp: 0.00913

Req: So what does the record say about IC50 for "C[C@]1(c2cc(NC(=O)c3ccc(Cl)cn3)cnc2F)N=C(N)S[C@@]2(CO)C[C@H]21" ?
Resp: 0.0225

###

Molecular target: Recombinant Cat D (Homo sapiens (Human), UniProt P07339)
Sequence (P07339 65-412): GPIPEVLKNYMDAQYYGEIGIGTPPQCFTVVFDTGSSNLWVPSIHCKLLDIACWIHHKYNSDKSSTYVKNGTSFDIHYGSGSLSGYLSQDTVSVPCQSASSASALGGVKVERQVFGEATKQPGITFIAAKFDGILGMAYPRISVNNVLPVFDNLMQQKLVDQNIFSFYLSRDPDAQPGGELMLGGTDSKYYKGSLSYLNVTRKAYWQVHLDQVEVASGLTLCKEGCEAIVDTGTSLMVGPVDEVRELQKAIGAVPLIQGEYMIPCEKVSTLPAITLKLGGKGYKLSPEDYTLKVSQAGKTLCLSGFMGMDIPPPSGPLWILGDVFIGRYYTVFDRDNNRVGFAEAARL
Experiment: In vitro enzymatic Cathepsin D (Cat D) FRET assay
Type: biochemical
Details: read-out: IC50 IP (μM) CatD
Description: In Vitro Enzymatic Cathepsin D (Cat D) FRET (Fluorescence Resonance Energy Transfer) Assay Recombinant Cat D was expressed in CHO cells. The assay buffer for CathepsinD is 0.05 M citrate pH 3.5, 10% DMSO final, 5 mM CHAPS. […] The FRET assay is terminated with by addition of Tris buffer, which raises the pH to neutrality, and the fluorescence is determined. […] Proteolytic cleavage of the FRET substrate releases quenching of fluorescence (Cat D excitation 500 nm and emission 580 nm).
Response field label takes 1 when IC50 is strictly below 200 µM and -1 in all other cases.

Req: Please let me know if COC[C@@]12SC(N)=N[C@](C)(c3cc(Nc4ncnc5cc(C#N)cnc45)ccc3F)[C@@H]1C2(F)F [Example 709] shows IC50 below 200 µM.
Resp: 1

Req: Please let me know if C[C@]1(c2cc(Nc3nccc4nc(OCc5ncco5)cnc34)cc(F)c2F)N=C(N)S[C@@]2(S(C)(=O)=O)C[C@H]21 [Example 747] shows IC50 below 200 µM.
Resp: -1

Req: Please let me know if COC[C@]12C[C@H]1[C@@](C)(c1cc(Nc3nccc4cc(OCC(F)(F)C(F)F)cnc34)cc(F)c1F)N=C(N)S2 [Example 731] shows IC50 below 200 µM.
Resp: -1

Req: Please let me know if C#C[C@H](C)Oc1cnc(C(=O)Nc2ccc(F)c([C@@]3(C)N=C(N)S[C@@]4(C(=O)NC(C)(C)C)C[C@H]43)c2)cn1 [Example 994] shows IC50 below 200 µM.
Resp: -1

Req: Please let me know if NC1=N[C@](CF)(c2cc(NC(=O)c3ccc(Cl)cn3)ccc2F)[C@@H]2C[C@]2(c2c[nH]nn2)S1 [Example 956] shows IC50 below 200 µM.
Resp: -1

Req: Please let me know if C[C@]1(c2cc(NC(=O)c3ccc(OCc4ncco4)cn3)cc(F)c2F)N=C(N)S[C@@]2(S(C)(=O)=O)C[C@H]21 [Example 745] shows IC50 below 200 µM.
Resp: -1

Req: Please let me know if COC[C@@]12SC(N)=N[C@](C)(c3cc(NC(=O)c4ccc(Cl)cn4)ccc3F)[C@@H]1C2(F)F [Example 710] shows IC50 below 200 µM.
Resp: -1

Req: Please let me know if C[C@]1(c2cc(Nc3ncnc4cc(OCc5ncco5)cnc34)cc(F)c2F)N=C(N)S[C@@]2(C(N)=O)C[C@H]21 [Example 918] shows IC50 below 200 µM.
Resp: 1

Req: Please let me know if COC[C@]12C[C@H]1[C@@](C)(c1cc(Nc3nccc4nc(OCc5ncco5)cnc34)cc(F)c1F)N=C(N)S2 [Example 631] shows IC50 below 200 µM.
Resp: -1

Req: Please let me know if C#CCOc1cnc(C(=O)Nc2cc(F)c(F)c([C@@]3(C)N=C(N)S[C@@]4(CNC(C)=O)C[C@H]43)c2)cn1 [Example 1042] shows IC50 below 200 µM.
Resp: 1

Req: Please let me know if C#CCOc1cnc(C(=O)Nc2ccc(F)c([C@@]3(C)N=C(N)S[C@@]4(C(=O)NC(C)(C)CF)C[C@H]43)c2)cn1 [Example 1006] shows IC50 below 200 µM.
Resp: 1

Req: Please let me know if Cc1ccnc(COc2cnc3c(Nc4cc(F)c(F)c([C@@]5(C)N=C(N)S[C@@]6(C(F)F)C[C@@H]56)c4)nccc3n2)n1 [Example 874] shows IC50 below 200 µM.
Resp: -1

Req: Please let me know if COC[C@]12C[C@H]1[C@@](CF)(c1cc(Nc3nccc4cc(C#N)cnc34)ccc1F)N=C(N)S2 [Example 717] shows IC50 below 200 µM.
Resp: -1
